Reference source for all entries: PubChem BioAssay (NCATS)

Assayed target: Nucleoprotein (Lymphocytic choriomeningitis virus (strain Armstrong))
Protocol details: qHTS for Inhibitors of the Functional Ribonucleoprotein Complex (vRNP) of Lymphocytic Choriomeningitis Arenaviruses (LCMV): LCMV Primary Screen - GLuc reporter signal (AID 1347086); further: nearly all actives have a fitted effect of over 70% in size; further: potency means the concentration at half of the fitted maximal effect
Measurement conditions: LCMV minigenome vRNP cell assay, Gaussia luciferase reporter; series mostly up to 57.5 µM
Inconclusive results are not listed. Calls of active or inactive are those of the source. The call rests on the fitted dose curve.
Metric name: Potency

CC(C)=CCOc1c2ccoc2c(OCC=C(C)C)c2oc(=O)ccc12 : inactive
C[C@]12C=CC(=O)N[C@@H]1CC[C@H]1[C@H]3CC[C@@H](C(=O)Nc4cc(C(F)(F)F)ccc4C(F)(F)F)[C@@]3(C)CC[C@@H]12 : inactive
CSc1c(Cl)c(Cl)c(Cl)c(Cl)c1Cl : inactive
O=C(Cc1ccc(-c2ccc(OCCN3CCOCC3)cc2)cn1)NCc1ccccc1 : 0.137 µM (active)

Task: // fetch Nucleoprotein (Lymphocytic choriomeningitis virus (strain Armstrong)) Potency for "C/C(=C\CNc1ncnc2c1ncn2[C@@H]1O[C@H](CO)[C@@H](O)[C@H]1O)CO"
Result: inactive

Task: // next record "Cn1cc(-c2ccncc2)c(-c2ccc(OCc3ccc4ccccc4n3)cc2)n1"
Result: 21.7 µM (active)

Task: // next record "COc1cc(CCC(C)=O)ccc1O"
Result: inactive

Task: // next record "N[C@H](C(=O)O)c1cc(O)cc(O)c1"
Result: inactive

Task: // next record "CC1(C)Oc2ccc3ccc(=O)oc3c2[C@@H](O)[C@H]1O"
Result: inactive

Task: // next record CC(C)CC[C@@H](O)[C@](C)(O)C1CC[C@@]2(O)C3=CC(=O)[C@@H]4C[C@@H](O)[C@@H](O)C[C@]4(C)C3CC[C@]12C (stereo not given in full)
Result: inactive

====

Protocol details: qHTS for Inhibitors of the Functional Ribonucleoprotein Complex (vRNP) of Lassa (LASV) Arenavirus: Viability assay - alamar blue signal for LASV Primary Screen (AID 1347083); further: nearly all actives have a fitted effect of over 80% in size
Measurement conditions: cell viability, alamar blue fluorescence (LASV minigenome counter-screen); series mostly up to 57.5 µM
Results filed as inconclusive are left out. Calls of active or inactive are those of the source. Calls follow the shape of the full dose curve; tested in HEK293 reporter line.
Lab note: assign the record to one of active, inactive

Completed entries (count: 4):
OC(CCN1CCCCC1)(c1ccccc1)C1CCCCC1 (stereo not given) : inactive
CNC(=O)c1ccc(Nc2cc(Nc3ccccc3S(=O)(=O)C(C)C)c3cc[nH]c3n2)nc1 : active
COc1cc2c(cc1OC)C1CC(=O)C(CC(C)C)CN1CC2 (stereo not given) : inactive
O=C(O)CC(=O)Nc1ccccc1C(=O)O : inactive

Task: Write down the call the test reported for this compound. Item: "C[N+]1(C)[C@@H]2C[C@@H](OC(=O)C(O)(c3cccs3)c3cccs3)C[C@H]1[C@@H]1O[C@@H]12"
Result: inactive

====

Protocol details: Primary qHTS to identify inhibitors of SARS-CoV-2 cell entry (AID 1645846); further: nearly all actives have a fitted effect of over 45% in size
Measurement conditions: SARS-CoV-2 pseudovirus cell entry assay, luminescence; series mostly up to 57.1 µM
Records with an inconclusive call do not appear. Active and inactive are the calls of the source. The call rests on the fitted dose curve.
Lab note: assign the record to one of Yes = active, No = inactive

CCNC(=O)[C@H]1O[C@@H](n2cnc3c(N)nc(NCCc4ccc(CCC(=O)O)cc4)nc32)[C@H](O)[C@@H]1O : No

Task: Write down the call the test reported for this molecule. Item: "COc1cc(/C=C(\C#N)C(=O)Nc2nnc(C(F)(F)F)s2)ccc1OCc1ccc(C(F)(F)F)cc1C(F)(F)F"
Result: No

Task: // next record "COc1ccc(-c2nc(N3CCOCC3)c3sc(CN(C)c4ncc(C(=O)NO)cn4)cc3n2)cn1"
Result: No

Task: // next record "C[C@@H]1CN(Cc2ccc(F)cc2)CCN1C(=O)COc1ccc(Cl)cc1NC(N)=O"
Result: Yes

Task: // next record "CCCCOc1c(C(=O)c2c(F)cc(C)cc2F)cnc2n[nH]cc12"
Result: Yes

====

Protocol details: qHTS for Inhibitors of the Functional Ribonucleoprotein Complex (vRNP) of Lymphocytic Choriomeningitis Arenaviruses (LCMV): Viability assay - alamar blue signal for LCMV Primary Screen (AID 1347085); further: nearly all actives have a fitted effect of over 80% in size; further: potency means the concentration at half of the fitted maximal effect
Measurement conditions: alamar blue viability counter-screen, LCMV vRNP screen cells; series mostly up to 57.5 µM
Records with an inconclusive call do not appear. Calls of active or inactive are those of the source. Calls come from the whole dose curve; tested in HEK293 reporter line.
Metric name: Potency

The following compounds have reported results that may help.
CC1(C)C=Cc2c(c3ccccc3[nH]c2=O)O1 : inactive
CCCCCCCCCCCCCCCCCC(N)=O : inactive
CC(=O)O[C@@]1(C)C[C@@H](O)[C@]2(O)C=CO[C@@H](O[C@@H]3O[C@H](CO)[C@@H](O)[C@H](O)[C@H]3O)[C@@H]21 : inactive
CC(C)Oc1ccc(C(=O)N[C@H](CNC(=O)CN(C)C)Cc2ccc(-c3cn4cccc([C@H](C)O)c4n3)cc2)cc1Cl : 0.968 µM (active)
CCCCCCOC(=O)CCC : inactive

Task: Could you share which Potency value was measured for "COc1c2c(c3c(c1OC)c(=O)c1ccccc1n3C)OCO2" ?
Result: inactive

Task: // next record "O=C1c2c(O)cc(O)cc2O[C@H](c2ccc(O)c(O)c2)[C@@H]1O"
Result: inactive

====

Protocol details: Secretion counterscreen for inhibitors of the SERCaMP assay screened against the NCATS CANVASS Library (AID 1347390);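 further: light from luciferase secreted into medium read as a measure of general secretion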
Measurement conditions: SH-SY5Y constitutive GLuc secretion, luminescence, 20 h; series mostly up to 76.6 µM
Results filed as inconclusive are left out. The source made the active and inactive calls. The call rests on the fitted dose curve; in most records, active means well fitted inhibition curve with a large enough effect; inconclusive means small, poorly fitted or top-dose-only effect; inactive means no such curve, though single readings can be large or run the other way.
Lab note: assign the record to one of YES for active, NO for inactive

Completed entries (count: 4):
c1ccc2c3c([nH]c2c1)CNCC3 : NO
C[C@]12CC(O)C3[C@@H](CCC4C[C@@H](O)CC[C@@]43CO)[C@@]1(O)CCC2C1=CC(=O)OC1 (some centres undefined) : NO
CCN1C[C@]2(C)CC[C@H](O)[C@]34C1C(C[C@H]23)[C@@]12CC[C@H](CC14)[C@](O)(COC(=O)c1ccc(OC)c(OC)c1)[C@H]2O (some centres undefined) : NO
CO[C@@H](/C=C/CC/C=C/C(=O)O)[C@@H](O)[C@H](C)/C=C(\C)[C@@H](O)[C@H](C)C(=O)CCCC1CC(=O)NC(=O)C1 : NO

Task: Write down the call the test reported for this molecule. Item: "C[C@@H]1CC[C@@H](c2ccoc2)N2C[C@@]3(CC[C@@H]12)CS[C@@]1(CC[C@H]2[C@H](C)CC[C@@H](c4ccoc4)N2[C@@H]1O)C3"
Result: YES

Task: // next record COC(=O)C1=C2Nc3ccccc3[C@@]23CCN2CC(C(C)=O)C1C[C@H]23 (some centres undefined)
Result: NO

Task: // next record "CCC(=O)CCCCC[C@@H]1NC(=O)[C@H]2CCCCN2C(=O)[C@H]([C@@H](C)CC)NC(=O)[C@H](Cc2cn(OC)c3ccccc23)NC1=O"
Result: NO

Task: // next record "COc1ccc2c(c1)[nH]c1c(C)nccc12"
Result: YES

Task: // next record CCN1C[C@]2(C)CC[C@@H](O)[C@]34C1[C@H](C[C@H]23)C12CCC(CC14)[C@](O)(CO)[C@H]2O (some centres undefined)
Result: NO

====

System: Es-2
Protocol details: Primary qHTS to identify gynecologic anti-cancer compounds using libraries of approved drugs and bioactive compounds (AID 1345084); further: nearly all actives have a fitted effect of over 55% in size
Measurement conditions: Gynecologic cancer cell panel viability, ATPlite luminescence, 48 h; series mostly up to 57.5 µM
Records with an inconclusive call do not appear. The source made the active and inactive calls. The call rests on the fitted dose curve; in most records, active means well fitted cell-killing curve with a large enough effect; inconclusive means small, poorly fitted or top-dose-only effect, or effect the other way; inactive means flat fitted curve, though single readings scatter.
Lab note: assign the record to one of class 1 = active, class 0 = inactive

Completed entries (count: 5):
C=C(C)[C@@H]1[C@H]2OC(=O)[C@H]1[C@]1(O)C[C@H]3O[C@]34C(=O)O[C@H]2[C@]14C : class 0
CN1C(=O)N(c2ccc(C#N)c(C(F)(F)F)c2)C(=O)[C@@]1(CO)c1ccccc1 : class 0
COC1CC(O[C@H]2CC[C@]3(C)C4CC[C@]5(C)[C@@H](C6=CC(=O)OC6)[C@@H](OC(C)=O)C[C@]5(O)C4CC[C@@H]3C2)OC(C)C1O (some centres not stated) : class 1
NCCCCCNC1(c2ccccc2)CCCCC1 : class 0
CC[C@@H]1C[C@H]2CC[C@H](O2)[C@H](C)C(=O)O[C@@H](C)C[C@@H]2CC[C@@H](O2)[C@@H](C)C(=O)O[C@H](CC)C[C@H]2CC[C@H](O2)[C@H](C)C(=O)O[C@@H](C)C[C@@H]2CC[C@@H](O2)[C@@H](C)C(=O)O1 : class 1

Task: Write down the call the test reported for this molecule. Item: O=C(N1CCCCC1Cc1ccccc1)n1cc(-c2ccc(-c3ccccc3)cc2)nn1 (configuration not stated)
Result: class 0

Task: // next record "N#Cc1ccc([C@H]2CCCC[C@H]2O)cc1C(F)(F)F"
Result: class 0

Task: // next record "CO[C@H]1C[C@H](O[C@H]2CC[C@]3(CO)[C@H]4CC[C@]5(C)[C@@H](C6=CC(=O)OC6)CC[C@]5(O)[C@@H]4CC[C@]3(O)C2)O[C@H](C)[C@H]1O"
Result: class 1

Task: // next record "CC(=O)OC[C@]12C[C@H](O)C(C)=C[C@H]1O[C@@H]1[C@H](O)[C@@H](OC(C)=O)[C@@]2(C)[C@]12CO2"
Result: class 1
